target: T1, HLA-DP4 molecule DP401 (DPA1*0103/DPB1*0401) (human), P20036; test: competition ELISA
T1 chain 1: not shown
T1 chain 2: not shown
experimental-readout: IC50 (nM)
Report as a plain number; the unit nM is understood.

# IC50 of GPGAPADVQYDLYLNVANRR (modifications not checked) [IL3 127-146] = 30.4

# IC50 of RELWWVFYAGDRALEEPHAE (modifications not checked) [UL21 283-302] = 22.9

# IC50 of LLEFYLAMPFATPMEAELARRSLAQ (modifications not checked) [NY-ESO1 87-111] = 186

# IC50 of LLTQHFVQENYLEY (modifications not checked) [MAG 245-258] = 250

# IC50 of LLMWITQCFLPVFLAQPPSGQRR (modifications not checked) [NY-ESO1 158-180] = 30

# IC50 of GVQIVRQIRSGERFLKIWSQ (modifications not checked) [NS-p2 (RV NS 101-120)] = 40

# IC50 of RNGYRALMDKSLHVGTQCALTRR (modifications not checked) [MART1 51-73] = 8000

# IC50 of TISSYFVGKMYFNLIDTK (modifications not checked) [Api m1 77-94] = 450
